Data provenance: patent US9969755B2

# procedureText: Absorption and steady-state fluorescence, fluorescence quantum yield in acetonitrile
# Format: physicochemical
# settings: acetonitrile, room temperature
Threshold check on ε (extinction coefficient): at or above 80000 M⁻¹ cm⁻¹ gives 1.0, strictly below gives 0.0.

INSERT INTO results (compound, cat) VALUES
  ('CC1=C(I)C(C)=[N+]2C1=C(C)c1c(C)c(I)c(C)n1[B-]2(F)F', 1.0),
  ('CC(=O)OCC1=C2C(C)=C(I)C(C)=[N+]2[B-](F)(F)n2c(C)c(I)c(C)c21', 1.0),
  ('CC1=C(Br)C(C)=[N+]2C1=C(CC1(C)CCc3c(C)c(O)c(C)c(C)c3O1)c1c(C)c(Br)c(C)n1[B-]2(F)F (stereo not drawn)', 0.0),
  ('CC1=C(I)C(C)=[N+]2C1=C(COC(=O)C1(C)CCc3c(C)c(O)c(C)c(C)c3O1)c1c(C)c(I)c(C)n1[B-]2(F)F (racemic)', 0.0);
